Test system: C33A
assay-info: Confirmatory qHTS for gynecologic anti-cancer compounds from libraries of approved drugs and bioactive compounds; also: nearly all actives have a fitted effect of over 55% in size
applied-conditions: gynecologic cancer cell panel viability, ATPlite luminescence, 48 h; series mostly up to 57.6 µM
Records with an inconclusive call do not appear. Activity calls are given as the source filed them. Calls follow the shape of the dose curve; as a rule, active = well fitted cell-killing curve with a large enough effect; inconclusive = small, poorly fitted or top-dose-only effect, or effect the other way; inactive = no such curve, though single readings can be large or run the other way.
Possible outcomes: y for active, n for inactive

# molecule, label-value
data = [
    ("O=C(O)C1(Cc2cccc(Nc3nccs3)n2)CCC(Oc2cccc(Cl)c2F)CC1 (centres undefined)", "n"),
    ("CCN(CC)CCNC(=O)c1c(C)[nH]c(/C=C2\\C(=O)Nc3ccc(F)cc32)c1C", "y"),
    ("N#CC1(c2cccc(C(=O)Nc3cc(Oc4ccc5nc(NC(=O)C6CC6)sc5n4)ccc3F)c2Cl)CC1", "n"),
    ("CC(C)C[C@H](NC(=O)[C@H](CCc1ccccc1)NC(=O)CN1CCOCC1)C(=O)N[C@@H](Cc1ccccc1)C(=O)N[C@@H](CC(C)C)C(=O)[C@@]1(C)CO1", "y"),
    ("Cn1cc(-c2ccc3ncc(Cc4ccc5ncccc5c4)n3n2)cn1", "n"),
    ("c1nc2nc(Nc3ccc(N4CCOCC4)cc3)nc(NC3CCCCC3)c2[nH]1", "n"),
    ("O=C(Nc1cn[nH]c1-c1nc2ccc(CN3CCOCC3)cc2[nH]1)NC1CC1", "y"),
    ("Cc1cnc(Nc2ccc(F)cc2Cl)nc1-c1c[nH]c(C(=O)NC(CO)c2cccc(Cl)c2)c1 (centres undefined)", "n"),
    ("COc1cc(F)c(F)c(Nc2ccc(I)cc2F)c1NS(=O)(=O)C1(CC(O)CO)CC1 (centres undefined)", "n"),
]

---

System: C33A
assay-info: Confirmatory qHTS for gynecologic anti-cancer compounds from libraries of approved drugs and bioactive compounds; also: nearly all actives have a fitted effect of over 55% in size
applied-conditions: gynecologic cancer cell panel viability, ATPlite luminescence, 48 h; series mostly up to 57.6 µM
Results filed as inconclusive are left out. Calls of active or inactive are those of the source. Calls follow the shape of the dose curve; as a rule, active = well fitted cell-killing curve with a large enough effect; inconclusive = small, poorly fitted or top-dose-only effect, or effect the other way; inactive = no such curve, though single readings can be large or run the other way.
Outcome codes: TRUE = active, FALSE = inactive

# compound, study-target, label-value
data = [
    ("CC1(C)[C@@H](O)CC[C@]2(C)[C@H]3C(=O)C=C4[C@@H]5C[C@@](C)(C(=O)O)CC[C@]5(C)CC[C@@]4(C)[C@]3(C)CC[C@@H]12", "C33A", "FALSE"),
    ("Cc1c(NC(=O)OCC2COCCN2)cn2ncnc(Nc3ccc4c(cnn4Cc4cccc(F)c4)c3)c12 (centres undefined)", "C33A", "TRUE"),
    ("CC1=C(/C=C/C(C)=C/C=C/C(C)=C/C(=O)Nc2ccc(O)cc2)C(C)(C)CCC1", "C33A", "TRUE"),
    ("O=C1N(c2ccccc2)c2ccccc2C1(Cc1ccncc1)Cc1ccncc1", "C33A", "FALSE"),
    ("Nc1ncnc2c1ncn2[C@@H]1O[C@H](CO)C[C@H]1O", "C33A", "FALSE"),
    ("Nc1cccc(-c2cc3c(Oc4cccc(O)c4)ncnc3[nH]2)c1", "C33A", "FALSE"),
    ("CCc1cccc(CC)c1NC(=O)N1Cc2[nH]nc(NC(=O)c3ccc(N4CCN(C)CC4)cc3)c2C1", "C33A", "FALSE"),
    ("COc1cc(C(=O)N2CCC(N3CCN(C)CC3)CC2)ccc1Nc1ncc2c(n1)N(C)c1ccccc1C(=O)N2C", "C33A", "FALSE"),
    ("O=c1cc(CN2CCOCC2)occ1OCCCCCSc1ccnc2cc(C(F)(F)F)ccc12", "C33A", "FALSE"),
]
